# system name: T1, c-mpl receptor (Homo sapiens (Human), UniProt P40238 26-491, The MPL used for panning was biotinylated; the biotin site is not stated and is not carried by the letters.)
# T1 construct: also called TPO receptor
# T1 sequence: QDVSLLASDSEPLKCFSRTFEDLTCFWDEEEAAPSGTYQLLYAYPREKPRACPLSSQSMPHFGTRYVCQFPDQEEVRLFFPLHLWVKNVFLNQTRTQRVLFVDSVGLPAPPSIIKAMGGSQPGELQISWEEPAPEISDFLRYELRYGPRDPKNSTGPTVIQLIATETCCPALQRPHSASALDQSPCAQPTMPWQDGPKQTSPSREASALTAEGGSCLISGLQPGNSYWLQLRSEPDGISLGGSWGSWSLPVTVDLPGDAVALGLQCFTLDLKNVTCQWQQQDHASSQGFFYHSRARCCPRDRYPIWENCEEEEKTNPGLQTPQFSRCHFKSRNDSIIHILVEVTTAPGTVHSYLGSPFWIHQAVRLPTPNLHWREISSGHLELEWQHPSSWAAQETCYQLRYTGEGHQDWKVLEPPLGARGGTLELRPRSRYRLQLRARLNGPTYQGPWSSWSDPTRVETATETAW
# protocol description: phage-ELISA
measured metric: Relative activity
Number only, please.

{"columns": ["binder", "Relative activity"],
 "data": [
  ["IEGPTFKQWQLWRLQHS [SEQ ID NO: 327]", 12.6],
  ["IEGLLSQLWQAARA [SEQ ID NO: 330]", 7.11],
  ["IEGWSWQFYFHAKGDHS [SEQ ID NO: 277]", 104],
  ["IEGWWWQLYFHAKDDHS [SEQ ID NO: 260]", 126]
]}

Let us move to another entry and its Relative activity.
Task: Can you look up the measured Relative activity of IEGQEPTRLRLQMDRHS [SEQ ID NO: 304] for me?
Output: 48.3
